Each recorded value in this set is attributed to patent US20240247080A1.

Tgt: hGLP1R (Homo sapiens, UniProt P43220)
Construct: expressed in transfected cells; host or cells: HEK-293 cells carrying a CRE-luciferase reporter gene
Sequence (P43220 24-463): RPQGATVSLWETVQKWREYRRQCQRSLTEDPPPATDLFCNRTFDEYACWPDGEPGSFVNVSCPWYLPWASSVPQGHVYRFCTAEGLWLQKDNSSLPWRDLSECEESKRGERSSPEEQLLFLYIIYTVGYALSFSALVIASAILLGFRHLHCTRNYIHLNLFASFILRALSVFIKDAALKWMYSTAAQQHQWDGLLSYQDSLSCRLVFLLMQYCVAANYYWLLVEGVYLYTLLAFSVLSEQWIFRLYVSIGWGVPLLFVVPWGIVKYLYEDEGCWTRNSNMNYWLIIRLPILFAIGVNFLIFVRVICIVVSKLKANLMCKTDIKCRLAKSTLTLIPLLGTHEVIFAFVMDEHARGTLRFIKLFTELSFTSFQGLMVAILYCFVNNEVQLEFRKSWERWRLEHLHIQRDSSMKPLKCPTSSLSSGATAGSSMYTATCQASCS
Assay Comment: hGLP1R CreLuc reporter gene assay in 0.5% and 100% plasma
Type: cell-based
Test Settings: CreLuc reporter gene assay, 0.5% human plasma; read-out: hGLP1R 0.5% hP
Starred links: 1 amine or outer side, 2 acyl side, 3 side chain; linkers in the order of their positions; H or OH if unused. Positions of bridges follow the written chain, without caps; N, C: chain ends. Non-standard residues stand in square brackets, D forms with d. Groups on a side chain read outwards from the residue. Chains are numbered I, II in the order given. *: point of attachment. C20 diacid = O=C(O)CCCCCCCCCCCCCCCCCCC(=O)*; C18 diacid = O=C(O)CCCCCCCCCCCCCCCCC(=O)*; γGlu = O=C(O)[C@H](CCC(=O)[*:2])N[*:1]; εLys = N[C@@H](CCCCN[*:1])C(=O)[*:2]; Tle = CC(C)(C)[C@H](N)C(=O)O; Aib = CC(C)(N)C(=O)O
Can you tell me EC50 for the items I'm about to list?
Give bare numbers, in nM.

Here is how some substances turned out for EC50.
What value of measured EC50 is listed for H-Y[Aib]EGTFTSDYSI[Aib]LEKQAQ[Aib]AFVQWLIK([γGlu-γGlu-γGlu-γGlu-γGlu-γGlu-C18 diacid])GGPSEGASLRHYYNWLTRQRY-NH2 [Compound 252] ?
0.1

What value of measured EC50 is listed for H-Y[Aib]EGTFTSDYSI[Aib]LEKQAQ[Aib]AFVEWLIK([εLys-γGlu-γGlu-γGlu-γGlu-γGlu-γGlu-C20 diacid])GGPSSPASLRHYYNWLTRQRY-NH2 [Compound 95] ?
0.13

What value of measured EC50 is listed for I: H-Y[Aib]EGTFTSDYSI[Aib]LEKQAQ[Aib]AFVQWLIKGGPEEGASLRHYYNWLTRQRY-NH2 / II: {C18 diacid}-EEEEEE[εLys] (amide I:28-II:C) [Compound 196] ?
0.2

Report EC50 for every entry below.
1. H-Y[Aib]EGTFTSDYSI[Aib]LEKQAQ[Aib]AFVEWLIK([εLys-γGlu-γGlu-γGlu-γGlu-γGlu-γGlu-C20 diacid])GGPSSGASLR[Aib]YYNWLTRQRY-NH2 [Compound 182]
2. H-Y[Aib]EGTFTSDYSI[Aib]LEKQAQ[Aib]AFVEWLIK([εLys-γGlu-γGlu-γGlu-γGlu-γGlu-γGlu-C20 diacid])GGPSSGASLRHYYNW[Tle]TRQRY-NH2 [Compound 137]

1: 0.13; 2: 0.12
